Please provide measured melting point for the entries that follow.

Inquiry: Given O=C(Nc1cc(C(F)(F)F)ccn1)c1ccc2[nH]c(Nc3c(Cl)cccc3Cl)nc2c1 , state its recorded melting point.
Reply text: 179 to 182 °C

Inquiry: Suppose we examine the compound COCCOc1cccc(NC(=O)c2ccc3c(c2)nc(Nc2c(Cl)cccc2Cl)n3C)n1 ; what melting point value has been reported?
Reply text: 185 to 187 °C

Inquiry: If you can, please state the reported melting point value of O=C(Nc1nc(C(F)(F)F)cs1)c1ccc2[nH]c(Nc3c(Cl)cccc3Cl)nc2c1 .
Reply text: 301 to 303 °C

Inquiry: Recorded melting point for O=C(Nc1ccc(Br)cc1)c1ccc2[nH]c(Nc3ccccc3OC(F)(F)F)nc2c1 , please?
Reply text: 241 to 243 °C

Inquiry: Returns the measured melting point for the input compound. Input: Cn1c(Nc2c(Cl)cccc2Cl)nc2cc(C(=O)Nc3ccc(C#N)cn3)ccc21
Reply text: 234 to 236 °C

Inquiry: Give its melting point value. Item: O=C(Nc1ccccn1)c1ccc2[nH]c(Nc3c(Cl)cccc3Cl)nc2c1
Reply text: 245 to 247 °C

Inquiry: Which melting point reading was recorded for the compound O=C(NCc1ccccc1C(F)(F)F)c1cc(Br)c2[nH]c(Nc3c(Cl)cccc3Cl)nc2c1 ?
Reply text: 176 to 178 °C

Inquiry: Give its melting point value. Item: Cc1ccc(Cl)cc1NC(=O)c1ccc2[nH]c(Nc3c(Cl)cccc3Cl)nc2c1
Reply text: 178 to 180 °C

----------
target: recombinant human mPGES-1 (Homo sapiens, UniProt O14684); construct: made in house; host or cells: Rosetta E. coli (microsomal/membrane fraction); experiment: mPGES-1 inhibition test (microsomes, PGH2 substrate, HTRF detection of PGE2); assay type: biochemical; conditions: inhibition of mPGES-1 at 10 μM
PROPERTY: inhibition at 10 µM (%)
Give your result in % as a bare value.

Inquiry: # input molecule: C#Cc1ccccc1Nc1nc2cc(C(=O)Nc3ccc(Br)cc3)ccc2n1C [Example 538] ; wanted: its inhibition at 10 µM
Reply text: 85

Inquiry: Quick check: inhibition at 10 µM of Cc1cccc(NC(=O)c2ccc3[nH]c(Nc4c(Cl)cccc4Cl)nc3c2)n1 [compound 336] ?
Reply text: 85

Inquiry: Look up inhibition at 10 µM: Cn1c(Nc2c(Cl)cccc2Cl)nc2cc(C(=O)NCc3c(C(F)(F)F)ccc[n+]3[O-])c(F)cc21 [Example 568]
Reply text: 60

Inquiry: # query: inhibition at 10 µM of entry CC(C)Oc1cc2[nH]c(Nc3c(Cl)ccc(Cl)c3F)nc2cc1C(=O)NC1CCC2(CC1)CC2 [Example 615]
Reply text: 96

----------
biological target: recombinant human mPGES-1 (Homo sapiens, UniProt O14684); construct: made in house; host or cells: Rosetta E. coli (microsomal/membrane fraction); assay: mPGES-1 inhibition test (microsomes, PGH2 substrate, HTRF detection of PGE2); format: biochemical; conditions: inhibition of mPGES-1 at 1 μM (marked in cell)
Record form. Attribute: inhibition at 1 µM. Fill in for each entry.
Be sure to follow the number with its unit.

Inquiry: Can you look up the measured inhibition at 1 µM of COc1cc2c(cc1C(=O)NC1CCCCC1)nc(Nc1c(Cl)ccc(C)c1F)n2C [Example 651] for me?
Reply text: 100%

Inquiry: Name the recorded inhibition at 1 µM for O=C(Nc1cccc(C(F)(F)F)c1)c1ccc2[nH]c(Nc3c(Cl)cccc3Cl)nc2c1 [Example 283] .
Reply text: 100%

Inquiry: Report inhibition at 1 µM for COc1cc2c(cc1C(=O)Nc1ccc(Br)cc1)nc(Nc1cccc(Cl)c1C(F)(F)F)n2C [Example 654] please.
Reply text: 99%

Inquiry: Which measured inhibition at 1 µM value corresponds to COc1cc2[nH]c(Nc3c(Cl)ccc(C)c3F)nc2cc1C(=O)NC1CCCCC1 [Example 628] ?
Reply text: 98%

Inquiry: May I ask what inhibition at 1 µM has been recorded for COc1cc2[nH]c(Nc3c(Cl)ccc(C)c3F)nc2cc1C(=O)N[C@H]1CC[C@H](C(F)(F)F)CC1 [Example 622] ?
Reply text: 96%

----------
Assignment: determine reported inhibition at 10 µM for the given molecules.
Biological target: recombinant human mPGES-1 (Homo sapiens)
Construct: made in house; host or cells: Rosetta E. coli (microsomal/membrane fraction)
Sequence (O14684 1-152): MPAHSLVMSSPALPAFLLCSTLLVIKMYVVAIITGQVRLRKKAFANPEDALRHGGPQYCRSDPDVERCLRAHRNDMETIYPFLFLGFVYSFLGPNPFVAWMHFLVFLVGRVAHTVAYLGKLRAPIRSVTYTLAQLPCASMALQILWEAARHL
Experiment: mPGES-1 inhibition test (microsomes, PGH2 substrate, HTRF detection of PGE2)
Type: biochemical
Settings: inhibition of mPGES-1 at 10 μM
API: value field is a number in %; no unit string.

Inquiry: Checklist item: inhibition at 10 µM tested on recombinant human mPGES-1 (Homo sapiens), entry O=C(Nc1cc(Cl)ccn1)c1ccc2c(c1)nc(Nc1c(Cl)cccc1Cl)n2CCN1CCCC1=O , value?
Reply text: 94

Inquiry: Return inhibition at 10 µM measured with recombinant human mPGES-1 (Homo sapiens) given this molecule: Cc1cc(C)nc(NC(=O)c2ccc3c(c2)nc(Nc2c(Cl)cccc2Cl)n3C)c1
Reply text: 100

Inquiry: // fetch recombinant human mPGES-1 (Homo sapiens) inhibition at 10 µM for O=C(Nc1ccccc1)c1ccc2[nH]c(Nc3cc(Cl)ccc3Cl)nc2c1
Reply text: 100

Inquiry: Reported inhibition at 10 µM for recombinant human mPGES-1 (Homo sapiens), given O=C(NC1CCC(C(F)(F)F)CC1)c1ccc2[nH]c(Nc3c(Cl)cccc3Cl)nc2c1 (stereo not shown) ?
Reply text: 99

----------
target: recombinant human mPGES-1 (Homo sapiens); construct: made in house; host or cells: Rosetta E. coli (microsomal/membrane fraction); assay: mPGES-1 inhibition test (microsomes, PGH2 substrate, HTRF detection of PGE2); format: biochemical; settings: inhibition of mPGES-1 at 10 μM
For each of the compounds below, state its inhibition at 10 µM.
# number only, unit % dropped from output

Inquiry: Need inhibition at 10 µM, item Cn1c(Nc2c(Cl)cccc2Cl)nc2cc(C(=O)NC3CCCCC3C(F)(F)F)ccc21 (stereo not drawn) [Example 254]
Reply text: 100

Inquiry: # query: inhibition at 10 µM of entry O=C(N[C@H]1CC[C@@H](C(F)(F)F)CC1)c1ccc2[nH]c(Nc3c(Cl)cccc3Cl)nc2c1 [Example 168]
Reply text: 100

Inquiry: Record request: inhibition at 10 µM value, item CCCCOc1cccc(NC(=O)c2ccc3[nH]c(Nc4c(Cl)cccc4Cl)nc3c2)n1 [Example 426]
Reply text: 98

Inquiry: Looking for the measured inhibition at 10 µM of COc1cc2c(cc1C(=O)N[C@H]1CC[C@H](C(F)(F)F)CC1)nc(Nc1c(Cl)cccc1Cl)n2C [Example 369] , can you help?
Reply text: 100

Inquiry: What value of measured inhibition at 10 µM is listed for Cc1cc2nc(NC(=O)c3ccc4[nH]c(Nc5c(Cl)cccc5Cl)nc4c3)[nH]c2cc1C [Example 314] ?
Reply text: 97

Inquiry: Fill in: inhibition at 10 µM of Cn1c(Nc2c(Cl)cccc2Cl)nc2cc(C(=O)NCc3cn4cc(Cl)ccc4n3)c(F)cc21 [Example 564] is ___
Reply text: 70

----------
target: recombinant human mPGES-1 (Homo sapiens); construct: made in house; host or cells: Rosetta E. coli (microsomal/membrane fraction); test: mPGES-1 inhibition test (microsomes, PGH2 substrate, HTRF detection of PGE2); type: biochemical; details: inhibition of mPGES-1 at 10 μM
Give inhibition at 10 µM for every item shown.
Units required after the number.

Inquiry: I'd like to know its inhibition at 10 µM. The molecule in question is Cn1c(Nc2c(Cl)cccc2Cl)nc2cc(C(=O)Nc3ccc(Br)cc3)ccc21
Reply text: 100%

Inquiry: Recorded inhibition at 10 µM of Cc1cc(NC(=O)c2ccc3nc(Nc4c(Cl)cccc4Cl)[nH]c3c2)cc(Cl)n1 , please.
Reply text: 100%

Inquiry: Would you mind telling me what inhibition at 10 µM value was observed for Cn1c(Nc2c(F)cccc2Cl)nc2cc(C(=O)NCCC3CC3)c(F)cc21 ?
Reply text: 96%

Inquiry: I'd like to know its inhibition at 10 µM. The molecule in question is Cn1c(Nc2c(F)cccc2C(F)(F)F)nc2cc(C(=O)Nc3ccc(Br)cc3)ccc21
Reply text: 100%

Inquiry: Bench note: what inhibition at 10 µM did C[C@@H]1CCC(NC(=O)c2cc3nc(Nc4c(F)cccc4Cl)n(C)c3cc2F)C1 (some centres unmarked) show?
Reply text: 98%

Inquiry: I would be grateful if you could share the reported inhibition at 10 µM for Cc1cc(C)nc(NC(=O)c2ccc3[nH]c(Nc4ccccc4C(F)(F)F)nc3c2)c1 .
Reply text: 80%

Inquiry: // inhibition at 10 µM lookup, key: O=C(NC1CCC(C(F)(F)F)CC1)c1cc2nc(Nc3c(F)ccc(Cl)c3Cl)[nH]c2cc1OCC(F)(F)F (centres unmarked)
Reply text: 99%

Inquiry: I would be grateful if you could share the reported inhibition at 10 µM for COc1cc2c(cc1C(=O)NCc1ncccc1OC)nc(Nc1c(Cl)cccc1Cl)n2C .
Reply text: 99%

Inquiry: Need inhibition at 10 µM, item O=C(Nc1ccc(Cl)cn1)c1ccc2[nH]c(Nc3c(Cl)cccc3Cl)nc2c1
Reply text: 97%

Inquiry: GET /values?readout=inhibition at 10 µM&item= CS(=O)(=O)CCn1c(Nc2c(Cl)cccc2Cl)nc2cc(C(=O)Nc3cc(Cl)ccn3)ccc21
Reply text: 85%

Inquiry: Which inhibition at 10 µM value belongs to O=C(NCc1cc(C(F)(F)F)ccn1)c1ccc2[nH]c(Nc3c(Cl)cccc3Cl)nc2c1 ?
Reply text: 87%

Inquiry: Consider the molecule O=C(Nc1ccc(Br)cc1)c1ccc2[nH]c(Nc3cccc(Cl)c3C(F)(F)F)nc2c1 and give its measured inhibition at 10 µM.
Reply text: 94%

Inquiry: Param item = CC(C)c1ccccc1Nc1nc2cc(C(=O)Nc3ccc(Br)cc3)ccc2n1C ; retrieve measured inhibition at 10 µM.
Reply text: 45%

Inquiry: What value of measured inhibition at 10 µM is listed for CO[C@H]1CC[C@H](NC(=O)c2ccc3c(c2)nc(Nc2c(Cl)cccc2Cl)n3C)CC1 ?
Reply text: 80%
